# experimental-system: T1, EsCas13d, nuclease-dead (Eubacterium siraeum, UniProt B0MS50, R295A;H300A;R849A;H854A)
# T1 sequence: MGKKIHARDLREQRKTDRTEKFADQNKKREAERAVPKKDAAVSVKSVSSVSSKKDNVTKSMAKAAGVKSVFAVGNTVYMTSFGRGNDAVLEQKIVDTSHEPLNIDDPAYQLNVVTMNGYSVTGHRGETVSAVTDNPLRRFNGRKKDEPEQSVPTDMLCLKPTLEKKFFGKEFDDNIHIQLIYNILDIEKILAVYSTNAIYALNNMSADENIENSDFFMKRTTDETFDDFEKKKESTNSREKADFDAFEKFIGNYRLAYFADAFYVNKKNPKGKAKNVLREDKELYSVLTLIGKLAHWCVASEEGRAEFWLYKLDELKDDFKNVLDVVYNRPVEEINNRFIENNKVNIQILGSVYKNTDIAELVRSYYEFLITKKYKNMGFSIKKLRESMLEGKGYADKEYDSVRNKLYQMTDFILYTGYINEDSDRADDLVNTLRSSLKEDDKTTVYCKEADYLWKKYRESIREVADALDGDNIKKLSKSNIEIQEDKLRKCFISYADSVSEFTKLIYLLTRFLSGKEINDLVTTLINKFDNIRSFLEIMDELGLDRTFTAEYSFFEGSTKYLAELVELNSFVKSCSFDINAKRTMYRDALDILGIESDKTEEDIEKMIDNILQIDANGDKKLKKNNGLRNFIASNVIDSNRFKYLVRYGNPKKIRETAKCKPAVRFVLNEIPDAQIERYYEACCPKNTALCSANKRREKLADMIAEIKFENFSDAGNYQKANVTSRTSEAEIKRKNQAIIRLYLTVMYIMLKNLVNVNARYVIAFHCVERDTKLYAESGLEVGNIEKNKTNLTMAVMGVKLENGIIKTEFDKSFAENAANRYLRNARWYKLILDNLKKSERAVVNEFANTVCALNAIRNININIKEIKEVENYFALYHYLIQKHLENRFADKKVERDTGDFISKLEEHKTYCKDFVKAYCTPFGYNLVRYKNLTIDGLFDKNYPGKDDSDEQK
# test-description: crRNA (strand 1, pre-loaded); Mg2+; 40 mM Tris-HCl pH 7.5, 150 mM NaCl, 6 mM MgCl2, 1 mM DTT, 0.1% Tween-20, 0.2 mg/ml BSA; 25 C; 10 min per concentration, then washed
# assay-context: tags: His6-TwinStrep-SUMO cleaved; N-terminal SNAP kept (SNAP-Surface 488); label: 3' end held by stalled T7 RNA polymerase
Each record is given TRUE if its reported Kd is strictly below 8 nM. Records at or above 8 nM are given FALSE.

Consider the worked cases shown below.
[
  {
    "binder": "target 1 MT 5'PFS GGA 3'PFS ACU (mixed) RNA 1: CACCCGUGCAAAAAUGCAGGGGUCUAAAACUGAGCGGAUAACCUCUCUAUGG RNA 2: GGGAAUGGAUCCACAUCUACGAAUUCGGACCAUAGAGAGGUUAUCCGCUCAACUAGAUCGGAAGAGCACACGU",
    "qualitative-label": "FALSE"
  },
  {
    "binder": "target 3 insG 3' of 7,insC 3' of 3 (mixed) RNA 1: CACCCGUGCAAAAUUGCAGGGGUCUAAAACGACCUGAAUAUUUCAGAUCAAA RNA 2: GGGAAUGGAUCCACAUCUACGAAUUCGUUUUUGAUCUGAAAUAUUGCAGGCUCUGCAGAUCGGAAGAGCACACGU",
    "qualitative-label": "FALSE"
  },
  {
    "binder": "target 1 C6A,C7U (mixed) RNA 1: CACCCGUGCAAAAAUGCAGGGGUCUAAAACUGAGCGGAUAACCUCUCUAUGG RNA 2: GGGAAUGGAUCCACAUCUACGAAUUCGUACCAUAGAGAGGUUAUUAGCUCACCGAGAUCGGAAGAGCACACGU",
    "qualitative-label": "TRUE"
  }
]

Let us examine a further case.
## Task Please state whether Kd is below 8 nM for target 2 MT 5'PFS UGG 3'PFS AAA (mixed) RNA 1: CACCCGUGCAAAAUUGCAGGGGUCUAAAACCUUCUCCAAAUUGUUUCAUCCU RNA 2: GGGAAUGGAUCCACAUCUACGAAUUCUGGAGGAUGAAACAAUUUGGAGAAGAAAAGAUCGGAAGAGCACACGU
## Result TRUE
